test system: Huh-7 cells carrying replicons; test: Cytotoxicity (MTT) in HCV replicon-carrying Huh-7 cells; conditions: Huh-7 replicon cells, 3 days, MTT, cell growth inhibited by 50%
Endpoint label: CC50 (nM)

• COc1cccc2c1C(=O)c1c(O)c3c(c(O)c1C2=O)CC(O)(C(=O)CO)CC3OC1CC(N=C(C)N2CCc3ccccc32)C(O)C(C)O1 (stereo not shown) [Derivative 133] = 1570
• COc1cccc2c1C(=O)c1c(O)c3c(c(O)c1C2=O)CC(O)(C(C)=O)CC3OC1CC(N=CN2CCCCCC2)C(O)C(C)O1.Cl (stereo not shown) [Derivative 75] = 47.9
• COc1cccc2c1C(=O)c1c(O)c3c(c(O)c1C2=O)CC(O)(C(=O)CO)CC3OC1CC(N=C(C)N2CCOCC2)C(O)C(C)O1 (stereo not shown) [Derivative 125] = 909
• COc1cccc2c1C(=O)c1c(O)c3c(c(O)c1C2=O)CC(O)(C(=O)CO)CC3OC1CC(N=C(C)N2CCOCC2)C(O)C(C)O1 (stereo not shown) [Derivative 54] = 4280

====

The reader will find reported IC50 values listed item by item below.
biological target: HCV helicase (helicase domain of NS3 protein) (UniProt P27958); construct: The helicase domain of NS3 protein was expressed in a baculovirus system in HF insect cell line; fused on or other part: Histidine tag, inferred from the Talon cobalt column purification ('histidine repetitions'); assay: Fluorometric (FRET) antihelicase activity assay; assay type: biochemical, hepatitis C virus (HCV); settings: concentration inhibiting 50% of helicase activity; 10 nM enzyme pre-incubated 15 min with derivative, unwinding at 30° C. for 60 min; read-out: IC50
Sequence (P27958 1027-1657): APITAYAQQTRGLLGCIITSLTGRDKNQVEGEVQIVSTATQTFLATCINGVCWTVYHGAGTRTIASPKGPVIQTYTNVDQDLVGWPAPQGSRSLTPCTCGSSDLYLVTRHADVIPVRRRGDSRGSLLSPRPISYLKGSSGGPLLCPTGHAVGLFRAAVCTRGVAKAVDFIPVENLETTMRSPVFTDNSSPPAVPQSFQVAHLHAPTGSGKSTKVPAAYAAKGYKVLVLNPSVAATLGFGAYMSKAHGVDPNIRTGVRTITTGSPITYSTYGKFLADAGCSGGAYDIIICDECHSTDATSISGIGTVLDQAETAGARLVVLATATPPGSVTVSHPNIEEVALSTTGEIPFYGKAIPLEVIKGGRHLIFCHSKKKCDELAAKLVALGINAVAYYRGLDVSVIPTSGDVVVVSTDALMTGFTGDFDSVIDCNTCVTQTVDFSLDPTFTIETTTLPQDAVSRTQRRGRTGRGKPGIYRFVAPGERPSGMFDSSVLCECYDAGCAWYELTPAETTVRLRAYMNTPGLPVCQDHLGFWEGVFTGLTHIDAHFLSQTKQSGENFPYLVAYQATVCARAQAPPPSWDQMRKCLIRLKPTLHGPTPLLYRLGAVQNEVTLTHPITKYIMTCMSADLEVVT
Endpoint label: IC50 (µM)

- CCN(C=NC1CC(OC2CC(O)(C(=O)CO)Cc3c(O)c4c(c(O)c32)C(=O)c2c(OC)cccc2C4=O)OC(C)C1O)CC (stereo not drawn) [Derivative 46]: 1.32
- COc1cccc2c1C(=O)c1c(O)c3c(c(O)c1C2=O)C[C@@](O)(C(C)=O)C[C@@H]3O[C@H]1C[C@H](N)[C@@H](O)[C@H](C)O1 [Epidaunorubicin, reference compound]: 3.73
- CCCN(C=NC1CC(OC2CC(O)(C(=O)CO)Cc3c(O)c4c(c(O)c32)C(=O)c2c(OC)cccc2C4=O)OC(C)C1O)CCC (stereo not drawn): 2.21
- COc1cccc2c1C(=O)c1c(O)c3c(c(O)c1C2=O)CC(O)(C(C)=O)CC3OC1CC(N=C(C)N2CCOCC2)C(O)C(C)O1 (stereo not drawn): 0.05
- COc1cccc2c1C(=O)c1c(O)c3c(c(O)c1C2=O)CC(O)(C(C)=O)CC3OC1CC(N=CN2CCN(C)CC2)C(O)C(C)O1 (stereo not drawn) [Derivative 8]: 1.96
- COc1cccc2c1C(=O)c1c(O)c3c(c(O)c1C2=O)CC(O)(C(C)=O)CC3OC1CC(N=CN2CCCC2)C(O)C(C)O1 (stereo not drawn) [Derivative 1]: 1.84

====

Molecular target: HCV helicase (helicase domain of NS3 protein) (UniProt P27958)
Construct: The helicase domain of NS3 protein was expressed in a baculovirus system in HF insect cell line; fused on or other part: Histidine tag, inferred from the Talon cobalt column purification ('histidine repetitions')
Test: Fluorometric (FRET) antihelicase activity assay
Assay type: biochemical, hepatitis C virus (HCV)
Details: concentration inhibiting 50% of helicase activity; 10 nM enzyme pre-incubated 15 min with derivative, unwinding at 30° C. for 60 min; read-out: IC50
From the text: A reaction takes place on a 96- or 384-well microtitration plate and a course of the reaction is observed in real time. The helicase domain of NS3 protein was expressed in a baculovirus system in HF insect cell line. In this assay, FAM fluorescence is quenched by fluorescence energy transfer (FRET) to the BHQ molecule, while unwinding of double-stranded DNA structure leads to decrease of FRET phenomenon and increase of FAM fluorescence signal. […]
Label Fulfilled when IC50 is strictly below 800 nM; at or above that, label Not fulfilled.

* COc1cccc2c1C(=O)c1c(O)c3c(c(O)c1C2=O)C[C@@](O)(C(C)=O)C[C@@H]3O[C@H]1C[C@H](N)[C@H](O)[C@H](C)O1 [Daunorubicin, reference compound] | Not fulfilled
* CCCN(CCC)C(C)=NC1CC(OC2CC(O)(C(C)=O)Cc3c(O)c4c(c(O)c32)C(=O)c2c(OC)cccc2C4=O)OC(C)C1O (stereo not drawn) | Not fulfilled
* COc1cccc2c1C(=O)c1c(O)c3c(c(O)c1C2=O)CC(O)(C(C)=O)CC3OC1CC(N=CN2CCCCC2)C(O)C(C)O1 (stereo not drawn) [Derivative 5] | Not fulfilled
* COc1cccc2c1C(=O)c1c(O)c3c(c(O)c1C2=O)CC(O)(C(C)=O)CC3OC1CC(N=CN2CCCC2)C(O)C(C)O1 (stereo not drawn) [Derivative 69] | Not fulfilled
* COc1cccc2c1C(=O)c1c(O)c3c(c(O)c1C2=O)CC(O)(C(C)=O)CC3OC1CC(N=CN2CCc3ccccc32)C(O)C(C)O1 (stereo not drawn) | Fulfilled
* COc1cccc2c1C(=O)c1c(O)c3c(c(O)c1C2=O)CC(O)(C(C)=O)CC3OC1CC(N=CN2CCN(C)CC2)C(O)C(C)O1 (stereo not drawn) [Derivative 76] | Fulfilled
* COc1cccc2c1C(=O)c1c(O)c3c(c(O)c1C2=O)CC(O)(C(=O)CO)CC3OC1CC(N=CN2CCOCC2)C(O)C(C)O1 (stereo not drawn) [Derivative 37] | Not fulfilled
* COc1cccc2c1C(=O)c1c(O)c3c(c(O)c1C2=O)CC(O)(C(=O)CO)CC3OC1CC(N=CN2CCCCC2)C(O)C(C)O1 (stereo not drawn) [Derivative 39] | Not fulfilled
* COc1cccc2c1C(=O)c1c(O)c3c(c(O)c1C2=O)CC(O)(C(C)=O)CC3OC1CC(N=CN2CCCCCC2)C(O)C(C)O1.Cl (stereo not drawn) | Not fulfilled
* COc1cccc2c1C(=O)c1c(O)c3c(c(O)c1C2=O)CC(O)(C(=O)CO)CC3OC1CC(N=C(C)N2CCc3ccccc32)C(O)C(C)O1 (stereo not drawn) | Fulfilled
* COc1cccc2c1C(=O)c1c(O)c3c(c(O)c1C2=O)CC(O)(C(=O)CO)CC3OC1CC(N=C(C)N2CCOCC2)C(O)C(C)O1 (stereo not drawn) [Derivative 125] | Fulfilled
* COc1cccc2c1C(=O)c1c(O)c3c(c(O)c1C2=O)CC(O)(C(=O)CO)CC3OC1CC(N=CN2CCc3ccccc32)C(O)C(C)O1 (stereo not drawn) | Fulfilled

====

biological target: HCV helicase (helicase domain of NS3 protein); construct: The helicase domain of NS3 protein was expressed in a baculovirus system in HF insect cell line; fused on or other part: Histidine tag, inferred from the Talon cobalt column purification ('histidine repetitions'); test: Fluorometric (FRET) antihelicase activity assay; type: biochemical, hepatitis C virus (HCV); details: concentration inhibiting 50% of helicase activity; 10 nM enzyme pre-incubated 15 min with derivative, unwinding at 30° C. for 60 min; read-out: IC50
Recorded IC50 by entry
Endpoint label: IC50 (µM)

• CCN(C=NC1CC(OC2CC(O)(C(=O)CO)Cc3c(O)c4c(c(O)c32)C(=O)c2c(OC)cccc2C4=O)OC(C)C1O)CC (stereo not drawn) [Derivative 116] = 2.17
• COc1cccc2c1C(=O)c1c(O)c3c(c(O)c1C2=O)CC(O)(C(=O)CO)CC3OC1CC(N=CN2CCCCC2)C(O)C(C)O1 (stereo not drawn) [Derivative 109] = 0.76
• CCN(C=NC1CC(OC2CC(O)(C(C)=O)Cc3c(O)c4c(c(O)c32)C(=O)c2c(OC)cccc2C4=O)OC(C)C1O)CC (stereo not drawn) [Derivative 80] = 0.3
• COc1cccc2c1C(=O)c1c(O)c3c(c(O)c1C2=O)CC(O)(C(C)=O)CC3OC1CC(N=C(C)N2CCCC2)C(O)C(C)O1 (stereo not drawn) = 0.41
• CCN(C=NC1CC(OC2CC(O)(C(C)=O)Cc3c(O)c4c(c(O)c32)C(=O)c2c(OC)cccc2C4=O)OC(C)C1O)CC (stereo not drawn) [Derivative 12] = 1.58
• COc1cccc2c1C(=O)c1c(O)c3c(c(O)c1C2=O)CC(O)(C(=O)CO)CC3OC1CC(N=C(C)N2CCCC2)C(O)C(C)O1 (stereo not drawn) [Derivative 52] = 0.5

====

target: HCV helicase (helicase domain of NS3 protein); construct: The helicase domain of NS3 protein was expressed in a baculovirus system in HF insect cell line; fused on or other part: Histidine tag, inferred from the Talon cobalt column purification ('histidine repetitions'); test: Fluorometric (FRET) antihelicase activity assay; format: biochemical, hepatitis C virus (HCV); details: concentration inhibiting 50% of helicase activity; 10 nM enzyme pre-incubated 15 min with derivative, unwinding at 30° C. for 60 min
pIC50: −log10 of the molar value.
Endpoint label: pIC50

- COc1cccc2c1C(=O)c1c(O)c3c(c(O)c1C2=O)CC(O)(C(C)=O)CC3OC1CC(N=CN2CCN(C)CC2)C(O)C(C)O1 (stereo not shown): 6.11

Where do these numbers come from? They come from patent US20090298786A1.
